test-system: Tumor necrosis factor receptor superfamily member 10B (Homo sapiens) (UniProt O14763)
Sequence (O14763 whole entry, looked up): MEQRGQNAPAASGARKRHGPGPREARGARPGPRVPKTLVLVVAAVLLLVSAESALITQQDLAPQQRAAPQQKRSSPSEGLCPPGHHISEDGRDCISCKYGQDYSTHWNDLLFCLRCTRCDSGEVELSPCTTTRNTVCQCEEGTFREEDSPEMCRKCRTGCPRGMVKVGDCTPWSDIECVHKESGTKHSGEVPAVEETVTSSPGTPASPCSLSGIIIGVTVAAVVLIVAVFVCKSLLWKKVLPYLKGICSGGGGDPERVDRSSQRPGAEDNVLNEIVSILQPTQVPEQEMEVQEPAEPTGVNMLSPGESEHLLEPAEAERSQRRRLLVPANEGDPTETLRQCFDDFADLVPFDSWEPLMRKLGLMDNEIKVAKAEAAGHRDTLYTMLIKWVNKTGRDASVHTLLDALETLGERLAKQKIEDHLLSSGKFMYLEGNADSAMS
test-details: TRAIL sensitizers in caspase-8 expressing neuroblastoma cells, dose response, NB7 cells plus caspase-8, luminescence, panel (AID 652002)
experimental-parameters: NB7 neuroblastoma +caspase-8, TRAIL sensitization, luminescence viability, NB7+Caspase-8, with TRAIL, run 1; at 12.5 µM (top of the series)
Decision: activity, % sensitization beneath 20% gives 1.0; activity, % sensitization meeting or exceeding 20% gives 0.0.

{"columns": ["molecule", "assigned-label"],
 "data": [
  ["CCOC(=O)c1ccc(N/C=C/C(=O)c2ccco2)cc1", 0.0],
  ["Cc1cc(NC(=O)c2cncc(Br)c2)ccc1NC(=O)c1cc2ccccc2o1", 1.0],
  ["Cc1cc(NC(=O)C2CCCC2)nc2c1c(=O)oc1ccccc12", 1.0],
  ["Cc1cccc2nc(=S)n(C(=O)c3ccco3)n12", 1.0],
  ["O=C(N/N=C/c1cccc(OC(=O)c2ccco2)c1)c1ccc(F)cc1", 0.0],
  ["CN(C)c1ccc(N/C=C/C(=O)c2ccco2)cc1", 0.0],
  ["CCOC(=O)c1cnc2c(-c3ccccc3)cnn2c1N", 0.0],
  ["COc1ccc(/C=N/Nc2nc3ccccc3c(=O)n2-c2ccccc2)cc1OC", 0.0],
  ["Cc1cc(N/N=C/c2ccccc2)nc(NCc2ccccc2)n1", 0.0],
  ["Cc1ccc(NC(=O)c2ccccc2O)cc1", 0.0],
  ["Cc1ccc(N=C/C(C(=O)C(F)(F)F)=C(\\O)c2cccs2)cc1", 0.0],
  ["COc1ccc(NS(=O)(=O)c2cccc(C(=O)N/N=C/c3c(F)c(F)c(F)c(F)c3F)c2)cc1", 1.0],
  ["Cc1ccc(NC(=O)CSc2nc3ccc(Nc4nc(N5CCOCC5)nc(N5CCOCC5)n4)cc3s2)cc1", 1.0],
  ["CCC(C)c1ccc(O)c(NC(=S)NC(=O)c2cccs2)c1 (configuration not stated)", 0.0],
  ["COc1ccccc1/C=C/C=N/n1c(-c2cc(-c3ccccc3)n[nH]2)n[nH]c1=S", 1.0],
  ["Cn1nnc(NC(=O)c2ccc(C(C)(C)C)cc2)n1", 0.0],
  ["COCCNC(=O)c1cc(-c2ccc(-c3ccccc3)cc2)nc2ccccc12", 0.0],
  ["Nc1ccccc1C(=O)NN=Cc1cccc([N+](=O)[O-])c1", 0.0],
  ["O=C(Oc1c(CN2CCOCC2)cc(Cl)c2cccnc12)c1cccs1", 0.0],
  ["COC(=O)[C@]12CCCCC=C1N(Cc1cccc3ccccc13)C(=O)[C@H](CC(=O)NCc1ccc(OC)c(OC)c1)C2", 0.0],
  ["CN(C)S(=O)(=O)c1ccc(C(=O)Nc2nnc(SCC(=O)NCC3CCCO3)s2)cc1 (configuration not stated)", 0.0]
]}

* * *

Each item that follows carries a reported inhibition.
System: Rat fibroblasts (CREF)
test-details: Peg3 promoter luciferase inhibitors, potency, dose response, cell-based, HeLa, CREF/GAPDH counter-screen panel (AID 624167)
experimental-parameters: CREF/GAPDH counter-screens; run 1, dose range 1, at 100 µM (top of the series)
attribute-measured: inhibition

{"columns": ["compound", "observed-measurement"],
 "data": [
  ["CS(=O)(=O)c1ccc(-c2sc3ccccc3c2C#CCCO)cc1", "95.2%"],
  ["CCN1C=CC(=C2C(=O)c3ccccc3C2=O)C=C1", "99.8%"],
  ["O=C(N/N=C/c1ccc(Cl)c([N+](=O)[O-])c1)c1cc(-c2ccc3c4c(cccc24)CC3)n[nH]1", "-4.6%"],
  ["Cc1cc(C)c(C)c(S(=O)(=O)N2CCN(C(=O)c3cc(=O)[nH]c4ccccc34)CC2)c1C", "34.6%"],
  ["COc1ccccc1C(=O)Nc1nc2ccccc2s1", "100%"],
  ["Cc1ccc(C(=O)Nc2nc3ccccc3[nH]2)cc1", "99.2%"],
  ["Cc1ccsc1/C=N/Nc1cccc(C(=O)O)c1", "51.5%"],
  ["Cc1ccc(C(=O)O/N=C(\\N)c2ccccn2)cc1", "100%"],
  ["O=C(c1ccco1)N1CCN(C(c2ccccc2Cl)c2nnnn2Cc2cccs2)CC1 (stereo not drawn)", "-23.5%"],
  ["COc1cccc(/C=N/NC(=O)c2ccc(-c3ccccc3)cc2)c1O", "69.8%"],
  ["CCOc1ccc(OCc2cccc(C(=O)O)c2)cc1", "96.6%"],
  ["CCc1ccc(/C=C2\\SC(=S)N(CCCC(=O)Nc3cc(C)on3)C2=O)cc1", "29.1%"],
  ["Cc1ccc(-n2c(N)c(C(=O)Nc3c(C)n(C)n(-c4ccccc4)c3=O)c3nc4ccccc4nc32)cc1", "89.4%"],
  ["Cc1ccc(-c2nc(-c3ccccn3)no2)cc1Cl", "99.3%"],
  ["O=C(Nc1cc(S(=O)(=O)N2CCOCC2)ccc1Cl)c1cc([N+](=O)[O-])ccc1Cl", "85.8%"],
  ["COc1ccccc1C(=O)Nc1nc2ccccc2[nH]1", "100%"],
  ["C/C(=N\\NC(=O)c1n[nH]c2c1CCC2)c1cccs1", "96.7%"],
  ["Cc1c(C)c2ccc(OCC(=O)Nc3ccccn3)c(C)c2oc1=O", "98.5%"],
  ["O=C(Nc1ccccc1C(=O)Nc1nnc(C(F)(F)F)s1)c1ccccc1", "-3.72%"],
  ["COC1=C(Br)C(=O)c2ncccc2C1=O", "95.3%"],
  ["O=C(NNC(=O)c1cccnc1SCc1cccc([N+](=O)[O-])c1)c1ccccn1", "46.9%"],
  ["CCN(CC)S(=O)(=O)c1cccc(C(=O)N/N=C(\\C)c2ccc(O)cc2O)c1", "43.3%"],
  ["Cc1cccc(C)c1NC(=O)c1nc(S(=O)(=O)Cc2ccccc2)ncc1Cl", "99.2%"]
]}

* * *

test-details: inhibition of Brca1/Bard1 split-luciferase complementation, confirmation, counter-screen for Mdm2/MdmX interaction inhibitor project, luminescence, single concentration (AID 504668)
experimental-parameters: Brca1/Bard1 bimolecular luciferase complementation counterscreen, at 8 µM, stronger effect = higher value

{"columns": ["molecule", "inhibition [%]"],
 "data": [
  ["O=C(C[C@H]1C[C@H](C(=O)N2CCCCC2)[C@@]2(CCc3ccccc3)c3[nH]c4ccc(Cl)cc4c3CCN2C1=O)NCc1cccc(C(F)(F)F)c1", 34],
  ["CCc1ccc(S(=O)(=O)/N=C2\\C=C(Nc3ccc(C(=O)O)cc3)C(=O)c3ccccc32)cc1", 33.2],
  ["CCCCCCCC[n+]1cccc2c3ccccc3ccc21", 23.3],
  ["CCN(CC)CCNC(=O)c1ccc(NC(=O)c2cn(-c3ccc(F)cc3)nc2-c2cccc(OC)c2)cc1", 27.9],
  ["Cc1ncc(CO)c(/C=N/Nc2ccc(C(F)(F)F)cn2)c1O", 33.8],
  ["O=C(NC(Nc1ncc(S(=O)(=O)c2ccc([N+](=O)[O-])cc2)s1)(C(F)(F)F)C(F)(F)F)c1ccc(Cl)cc1", 29.5],
  ["COc1ccc(O)c(/C=N/NC(=O)c2ccc(CSc3nc(C)cc(C)n3)cc2)c1", 30.7],
  ["Oc1ccc(CNc2ccccc2F)c2cccnc12", 30.8],
  ["Cc1cc(C(=O)CSc2nnc3ccccn23)c(C)n1-c1ccccc1", 29.6],
  ["Cc1cc(NC(c2ccc(Cl)cc2)c2ccc3cccnc3c2O)no1 (stereo not given)", 27.4],
  ["O=c1nc(Nc2ccc(OCc3ccccc3)cc2)sc2ncccc12", 23.4],
  ["O=C(Nc1ccc(Cl)c(Cl)c1)Nc1ccc(Br)cc1F", 35.2],
  ["O=c1c2ccccc2nc(COc2ccccc2)n1/N=C/c1ccc(O)cc1O", 31],
  ["CC(=O)Nc1nc(C)c(-c2csc(Nc3cccc([N+](=O)[O-])c3)n2)s1", 35.6],
  ["O=C(Nc1c2ccccc2nc2ccccc12)C(Cl)(Cl)Cl", 33.7],
  ["CS(=O)(=O)Nc1ccccc1C(=O)Nc1cc(Cl)cc(Cl)c1", 28.3],
  ["CC(C)(C)C(=O)N1CCN(c2ccc(NC(=O)c3ccc([N+](=O)[O-])o3)cc2)CC1", 30.5],
  ["COc1cccc(/C=C2\\SC(=S)N(CCC(=O)NCCc3ccc(O)cc3)C2=O)c1", 35.4],
  ["CCOC(=O)c1c(CN(C)C)n(C)c2c(O)c(N=NC(N)=O)c3ccc(Br)cc3c12", 27.9],
  ["CCCCN(CC)CCNC(=O)c1cc2c(-c3ccc(Cl)cc3)nn(C)c2s1", 31.2]
]}

* * *

test-system: Tumor necrosis factor receptor superfamily member 10B (Homo sapiens)
test-details: caspase-8 TRAIL sensitization, hit retest, confirmation, cell-based, NB7+caspase-8, with/without TRAIL, luminescence panel (AID 651596)
experimental-parameters: NB7 neuroblastoma + caspase-8, TRAIL sensitization, luminescence viability, with TRAIL, mean of runs, at 10 µM, stronger effect = higher value

{"columns": ["molecule", "activity (%)"],
 "data": [
  ["Cc1ccc(-c2nc(N/N=C/c3cccnc3)c3ccccc3n2)cc1", 94.3],
  ["Cc1cccc(-n2ncc3c(N4CCCC4)ncnc32)c1", 75.4],
  ["COc1ccc2nc(-c3ccccn3)ccc2c1", 82.1],
  ["C#Cc1ccc(NC(=O)C2(C)CCN2C(=O)C2(c3ccccc3)CCCC2)cc1 (stereo unspecified)", 91.3],
  ["C#CCSc1nnc(-c2ccc(OC)cc2)o1", 97.1],
  ["C/C(=N\\NC(=O)c1ccccc1O)c1ccc(Br)s1", 57.8],
  ["O=C1c2ccc3c4c(ccc(c24)C(=O)N1c1cccc(O)c1)C(=O)N(c1cccc(O)c1)C3=O", 63.2],
  ["Clc1nc2ccccc2cc1/C=N/Nc1nc2ccccc2[nH]1", 86.2],
  ["Cc1ccc(-n2c(-c3ccc(Br)cc3)c[n+]3c2CCc2ccc4cccnc4c2-3)cc1", 70.2],
  ["COc1ccc(/C=C(\\C#N)c2nc3ccccc3[nH]2)cc1O", 56.5],
  ["COc1ccc(C2=NN(C(=O)COC(=O)c3ccc(S(C)(=O)=O)c([N+](=O)[O-])c3)C(c3ccco3)C2)cc1 (stereo unspecified)", 92.5]
]}
